Target: recombinant human PAI-1 (Homo sapiens, UniProt P05121)
Sequence (P05121 24-402): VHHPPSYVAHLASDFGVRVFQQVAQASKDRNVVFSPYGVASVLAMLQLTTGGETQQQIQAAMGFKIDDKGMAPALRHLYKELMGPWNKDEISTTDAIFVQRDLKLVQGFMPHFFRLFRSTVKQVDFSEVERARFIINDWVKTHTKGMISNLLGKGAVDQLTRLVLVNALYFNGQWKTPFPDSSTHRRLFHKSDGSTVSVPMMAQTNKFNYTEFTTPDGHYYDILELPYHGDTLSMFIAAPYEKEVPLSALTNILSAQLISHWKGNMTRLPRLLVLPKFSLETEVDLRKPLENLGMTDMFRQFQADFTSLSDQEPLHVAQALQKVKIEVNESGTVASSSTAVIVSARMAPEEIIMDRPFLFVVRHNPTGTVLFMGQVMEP
Test: Test Example 2: Human PAI-1 Inhibitory Activity (pH 7.4 HEPES buffer, 10 minutes incubation with two-chain tPA)
Assay type: biochemical
Design: purchased Molecular Innovations, Inc
Conditions: read-out: Inhibition Rate of PAI-1 Activity (%)
Outcome label depends on inhibition at 1 µM relative to 70%: at/above gives satisfied, below gives not satisfied.

compound	group_label
CC(Oc1cc(-c2ccc(OC(F)(F)F)cc2)ccc1CCC(=O)O)c1ccccc1 (stereo not shown)	not satisfied

// query Given `CC(C)(C)c1ccc(Oc2cc(-c3ccc(OC(F)(F)F)cc3)ccc2CC(=O)O)cc1` , state whether its inhibition at 1 µM is at least 70%.
// result not satisfied

// query Given `CCCN(CC(=O)O)c1cc(-c2ccc(OC(F)(F)F)cc2)ccc1Oc1ccc(C(C)(C)C)cc1` , state whether its inhibition at 1 µM is at least 70%.
// result satisfied

// query Given `CSc1ccc(-c2ccc(OCC(=O)O)c(Oc3ccc(C(C)(C)C)cc3)c2)cc1` , state whether its inhibition at 1 µM is at least 70%.
// result not satisfied

// query Given `CC(C)(C)c1ccc(CN(C(=O)C(=O)O)c2ccc(Oc3ccc(OC(F)(F)F)cc3)cc2C(F)(F)F)cc1` , state whether its inhibition at 1 µM is at least 70%.
// result not satisfied

// query Given `CC(C)c1ccc(-c2ccc(CCC(=O)O)c(Oc3ccc(C(C)(C)C)cc3)c2)cc1` , state whether its inhibition at 1 µM is at least 70%.
// result satisfied

// query Given CCCCCCOc1cc(-c2ccc(OC(F)(F)F)cc2)ccc1OC(CCCCCC)C(=O)O (stereo not shown) , state whether its inhibition at 1 µM is at least 70%.
// result satisfied
